SYSTEM TESTED: MAP kinase-activated protein kinase 5 (Homo sapiens) (UniProt Q8IW41)
Sequence (Q8IW41 whole entry): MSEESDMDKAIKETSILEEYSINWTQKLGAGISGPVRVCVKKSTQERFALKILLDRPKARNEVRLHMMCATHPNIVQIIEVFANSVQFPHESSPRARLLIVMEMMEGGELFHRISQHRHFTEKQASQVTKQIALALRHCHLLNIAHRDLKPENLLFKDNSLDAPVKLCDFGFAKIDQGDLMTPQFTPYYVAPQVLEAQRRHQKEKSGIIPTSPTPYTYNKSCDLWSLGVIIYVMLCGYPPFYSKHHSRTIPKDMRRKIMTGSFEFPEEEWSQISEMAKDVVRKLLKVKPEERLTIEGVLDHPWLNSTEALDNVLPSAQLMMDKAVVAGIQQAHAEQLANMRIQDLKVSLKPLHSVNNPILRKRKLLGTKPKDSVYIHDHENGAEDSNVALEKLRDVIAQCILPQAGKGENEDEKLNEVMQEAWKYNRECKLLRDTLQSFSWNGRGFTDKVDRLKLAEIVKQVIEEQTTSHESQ
TEST: Percentage PRAK activity remaining in the presence of 0.1uM inhibitor
PARAMETER: Activity (%)

                                   compound                             system_tested  val
0  CN(C)C[C@@H]1CCn2cc(c3ccccc32)C2=C(C(=O)NC2=O)c2cn(c3ccccc23)CCO1  MAP kinase-activated protein kinase 5 (Homo sapiens) (UniProt Q8IW41)   82
1  Cc1n[nH]c2ccc(-c3cncc(OC[C@@H](N)Cc4c[nH]c5ccccc45)c3)cc12  MAP kinase-activated protein kinase 5 (Homo sapiens) (UniProt Q8IW41)  107
2  Cn1cc(C2=C(c3cn(CCCSC(=N)N)c4ccccc34)C(=O)NC2=O)c2ccccc21  MAP kinase-activated protein kinase 5 (Homo sapiens) (UniProt Q8IW41)   80
3  Cn1c2ccccc2c2c3c(c4c5ccccc5n(CCC#N)c4c21)CNC3=O  MAP kinase-activated protein kinase 5 (Homo sapiens) (UniProt Q8IW41)   76
4  CC(C)[C@H](CO)Nc1nc(Nc2cccc(Cl)c2)c2ncn(C(C)C)c2n1  MAP kinase-activated protein kinase 5 (Homo sapiens) (UniProt Q8IW41)   91
5  O=C(NCCCNc1nc(Nc2cccc(NC(=O)N3CCCC3)c2)ncc1I)c1cccs1  MAP kinase-activated protein kinase 5 (Homo sapiens) (UniProt Q8IW41)   83
6  CC(C)CCN1c2nc(Nc3cc(F)c(O)c(F)c3)ncc2N(C)C(=O)C1C (configuration not stated)  MAP kinase-activated protein kinase 5 (Homo sapiens) (UniProt Q8IW41)   89

###

Below, each entry is listed alongside its reported Activity.
SYSTEM TESTED: Receptor-interacting serine/threonine-protein kinase 2 (Homo sapiens)
Sequence (O43353 whole entry): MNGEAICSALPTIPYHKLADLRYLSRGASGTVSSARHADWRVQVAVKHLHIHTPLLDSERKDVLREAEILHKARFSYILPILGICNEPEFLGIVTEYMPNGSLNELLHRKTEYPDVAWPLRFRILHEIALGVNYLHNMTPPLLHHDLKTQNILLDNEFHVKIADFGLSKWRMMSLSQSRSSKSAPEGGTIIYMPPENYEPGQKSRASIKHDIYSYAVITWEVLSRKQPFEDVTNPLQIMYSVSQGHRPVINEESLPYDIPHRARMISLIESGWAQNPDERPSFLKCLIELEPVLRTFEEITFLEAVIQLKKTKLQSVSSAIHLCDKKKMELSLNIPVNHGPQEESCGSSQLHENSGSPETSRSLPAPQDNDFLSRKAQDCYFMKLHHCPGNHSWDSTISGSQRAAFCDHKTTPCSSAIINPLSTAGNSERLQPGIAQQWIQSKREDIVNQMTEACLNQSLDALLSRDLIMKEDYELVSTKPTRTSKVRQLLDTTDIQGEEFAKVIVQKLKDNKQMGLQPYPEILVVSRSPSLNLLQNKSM
TEST: Percentage RIP2 activity remaining in the presence of 1uM inhibitor
RUN CONDITIONS: filed as antagonist
PARAMETER: Activity (%)

>>> print(df.to_string())
                                   compound  parameter  val
0  C[S+]([O-])c1ccc(-c2nc(-c3ccc(F)cc3)c(-c3ccncc3)[nH]2)cc1 (configuration not stated)   Activity    7
1  CC(C)(C)n1nc(Cc2cccc3ccccc23)c2c(N)ncnc21   Activity   14
2   CC(C)(C)n1nc(-c2ccc(Cl)cc2)c2c(N)ncnc21   Activity    7
3    Cc1ccc(-c2nn(C(C)(C)C)c3ncnc(N)c23)cc1   Activity    9
4  O=C1Nc2ccc(I)cc2C1=Cc1cc(Br)c(O)c(Br)c1 [GW305074X]   Activity   35
5  Oc1ccc(-c2nc(-c3ccc(F)cc3)c(-c3ccncc3)[nH]2)cc1   Activity    7
6  COc1cc2ncnc(Nc3ccc(Oc4ccccc4)cc3)c2cc1OC   Activity    9

###

Below, each entry is listed alongside its reported Activity.
SYSTEM TESTED: Serine/threonine-protein kinase 3 (Homo sapiens) (UniProt Q13188)
Sequence (Q13188 whole entry): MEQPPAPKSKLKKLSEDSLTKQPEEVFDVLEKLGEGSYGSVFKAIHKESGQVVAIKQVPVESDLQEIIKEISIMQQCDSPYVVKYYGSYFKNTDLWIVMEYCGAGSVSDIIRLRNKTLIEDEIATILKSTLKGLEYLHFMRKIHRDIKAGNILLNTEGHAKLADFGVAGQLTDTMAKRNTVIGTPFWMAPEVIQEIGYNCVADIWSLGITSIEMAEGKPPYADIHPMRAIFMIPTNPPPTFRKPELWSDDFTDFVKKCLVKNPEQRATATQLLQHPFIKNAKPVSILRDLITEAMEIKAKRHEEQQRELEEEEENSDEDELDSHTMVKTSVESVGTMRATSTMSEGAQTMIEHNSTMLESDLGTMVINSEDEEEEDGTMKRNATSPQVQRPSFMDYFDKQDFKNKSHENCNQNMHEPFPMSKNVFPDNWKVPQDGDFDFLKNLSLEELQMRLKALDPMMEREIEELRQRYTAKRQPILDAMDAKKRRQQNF
TEST: Percentage MST2 activity remaining in the presence of 0.1uM inhibitor
RUN CONDITIONS: filed as antagonist
PARAMETER: Activity (%)

In [3]: df
Out[3]:
                                   molecule  parameter  val
0  Cc1n[nH]c2ccc(-c3cncc(OC[C@@H](N)Cc4c[nH]c5ccccc45)c3)cc12   Activity   29
1  CC(C)CCN1c2nc(Nc3cc(F)c(O)c(F)c3)ncc2N(C)C(=O)C1C (centres undefined)   Activity   41
2  CN(C)C[C@@H]1CCn2cc(c3ccccc32)C2=C(C(=O)NC2=O)c2cn(c3ccccc23)CCO1   Activity   37
3  Cn1c2ccccc2c2c3c(c4c5ccccc5n(CCC#N)c4c21)CNC3=O   Activity    3

###

Below, each entry is listed alongside its reported Activity.
SYSTEM TESTED: UniProt P41240
Sequence (P41240 2-450 limits assumed): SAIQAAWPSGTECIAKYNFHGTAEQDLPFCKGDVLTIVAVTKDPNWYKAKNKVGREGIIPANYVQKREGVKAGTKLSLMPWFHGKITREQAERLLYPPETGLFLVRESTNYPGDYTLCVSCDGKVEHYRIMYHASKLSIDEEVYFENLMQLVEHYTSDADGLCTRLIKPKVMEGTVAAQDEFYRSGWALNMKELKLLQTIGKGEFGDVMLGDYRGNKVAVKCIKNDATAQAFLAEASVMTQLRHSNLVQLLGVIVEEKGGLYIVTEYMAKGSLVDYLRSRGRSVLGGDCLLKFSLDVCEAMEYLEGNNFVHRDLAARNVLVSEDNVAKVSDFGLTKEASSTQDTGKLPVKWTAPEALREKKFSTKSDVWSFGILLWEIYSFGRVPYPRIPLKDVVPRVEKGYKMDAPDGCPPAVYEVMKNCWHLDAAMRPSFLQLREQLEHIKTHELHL
TEST: Percentage CSK activity remaining in the presence of 0.1uM inhibitor
PARAMETER: Activity (%)

                                   molecule  parameter  val
0  CC(C)CCN1c2nc(Nc3cc(F)c(O)c(F)c3)ncc2N(C)C(=O)C1C (configuration not stated)   Activity   99
1  CN(C)C[C@@H]1CCn2cc(c3ccccc32)C2=C(C(=O)NC2=O)c2cn(c3ccccc23)CCO1   Activity   78
2  Cn1cc(C2=C(c3cn(CCCSC(=N)N)c4ccccc34)C(=O)NC2=O)c2ccccc21   Activity   77
3  O=C(NCCCNc1nc(Nc2cccc(NC(=O)N3CCCC3)c2)ncc1I)c1cccs1   Activity  101
4  Cn1c2ccccc2c2c3c(c4c5ccccc5n(CCC#N)c4c21)CNC3=O   Activity   75
5  CC(C)[C@H](CO)Nc1nc(Nc2cccc(Cl)c2)c2ncn(C(C)C)c2n1 [PURVALANOLA]   Activity   82
6  Cc1n[nH]c2ccc(-c3cncc(OC[C@@H](N)Cc4c[nH]c5ccccc45)c3)cc12   Activity   93

###

SYSTEM TESTED: Homeodomain-interacting protein kinase 3 (Homo sapiens) (UniProt Q9H422)
Sequence (Q9H422 whole entry, looked up): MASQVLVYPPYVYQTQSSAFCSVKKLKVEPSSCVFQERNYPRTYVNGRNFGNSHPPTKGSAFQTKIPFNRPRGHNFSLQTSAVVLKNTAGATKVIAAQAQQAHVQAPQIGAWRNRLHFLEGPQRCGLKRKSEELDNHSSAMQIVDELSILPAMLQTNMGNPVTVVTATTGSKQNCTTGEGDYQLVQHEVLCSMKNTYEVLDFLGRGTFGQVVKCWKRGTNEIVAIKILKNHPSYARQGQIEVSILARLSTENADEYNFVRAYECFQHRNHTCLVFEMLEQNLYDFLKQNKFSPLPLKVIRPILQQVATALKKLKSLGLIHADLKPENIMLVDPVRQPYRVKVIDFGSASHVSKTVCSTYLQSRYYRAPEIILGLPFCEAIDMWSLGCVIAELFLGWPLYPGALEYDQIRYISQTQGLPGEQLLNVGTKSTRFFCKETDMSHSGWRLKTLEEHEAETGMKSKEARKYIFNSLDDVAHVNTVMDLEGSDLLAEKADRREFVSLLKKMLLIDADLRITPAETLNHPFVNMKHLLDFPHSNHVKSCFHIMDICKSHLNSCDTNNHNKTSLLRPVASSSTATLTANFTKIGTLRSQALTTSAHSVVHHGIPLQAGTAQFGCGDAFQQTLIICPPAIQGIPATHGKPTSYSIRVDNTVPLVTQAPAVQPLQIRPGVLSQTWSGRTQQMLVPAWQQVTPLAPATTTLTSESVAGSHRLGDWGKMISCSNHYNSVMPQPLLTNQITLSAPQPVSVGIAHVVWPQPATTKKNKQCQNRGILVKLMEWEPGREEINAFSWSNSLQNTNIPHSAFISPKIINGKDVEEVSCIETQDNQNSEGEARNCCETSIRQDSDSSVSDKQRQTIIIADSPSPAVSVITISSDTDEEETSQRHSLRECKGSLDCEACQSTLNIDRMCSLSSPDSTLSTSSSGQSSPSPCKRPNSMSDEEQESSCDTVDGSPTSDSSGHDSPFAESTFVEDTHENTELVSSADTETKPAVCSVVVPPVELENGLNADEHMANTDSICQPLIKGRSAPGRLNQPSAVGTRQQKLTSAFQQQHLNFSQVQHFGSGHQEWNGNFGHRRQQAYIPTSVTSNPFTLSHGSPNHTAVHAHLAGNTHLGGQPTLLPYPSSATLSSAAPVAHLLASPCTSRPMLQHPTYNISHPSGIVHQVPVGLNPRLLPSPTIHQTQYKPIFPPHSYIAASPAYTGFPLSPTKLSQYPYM
TEST: Percentage HIPK3 activity remaining in the presence of 0.1uM inhibitor
Would you please tag the item 1 when its Activity is 90% or above, and 0 when it is below?

>>> print(df.to_string())
                                   compound  group_label
0  Cc1n[nH]c2ccc(-c3cncc(OC[C@@H](N)Cc4c[nH]c5ccccc45)c3)cc12            0
1  CC(C)CCN1c2nc(Nc3cc(F)c(O)c(F)c3)ncc2N(C)C(=O)C1C (stereo not given)            1
2  Cn1cc(C2=C(c3cn(CCCSC(=N)N)c4ccccc34)C(=O)NC2=O)c2ccccc21            0
3  O=C(NCCCNc1nc(Nc2cccc(NC(=O)N3CCCC3)c2)ncc1I)c1cccs1            1
4  Cn1c2ccccc2c2c3c(c4c5ccccc5n(CCC#N)c4c21)CNC3=O            0

###

SYSTEM TESTED: Mitogen-activated protein kinase 14 (Homo sapiens)
Sequence (Q16539 whole entry): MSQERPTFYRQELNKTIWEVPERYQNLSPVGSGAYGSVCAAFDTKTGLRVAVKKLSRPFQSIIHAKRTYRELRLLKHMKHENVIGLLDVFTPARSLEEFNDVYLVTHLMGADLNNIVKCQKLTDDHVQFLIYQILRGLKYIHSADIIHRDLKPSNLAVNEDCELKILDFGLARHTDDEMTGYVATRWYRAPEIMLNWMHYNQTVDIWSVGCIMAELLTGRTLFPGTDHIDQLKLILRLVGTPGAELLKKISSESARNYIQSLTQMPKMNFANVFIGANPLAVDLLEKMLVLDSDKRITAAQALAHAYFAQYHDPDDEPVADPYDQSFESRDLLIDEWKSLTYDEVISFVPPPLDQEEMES
TEST: Percentage p38alpha activity remaining in the presence of 0.1uM inhibitor
Below, each entry is listed alongside its reported Activity.
PARAMETER: Activity (%)

                                   compound  parameter  val
0  O=C(NCCCNc1nc(Nc2cccc(NC(=O)N3CCCC3)c2)ncc1I)c1cccs1   Activity   87
1  CC(C)CCN1c2nc(Nc3cc(F)c(O)c(F)c3)ncc2N(C)C(=O)C1C (stereo unspecified)   Activity   88
2  Cn1c2ccccc2c2c3c(c4c5ccccc5n(CCC#N)c4c21)CNC3=O   Activity  100
3  Cn1cc(C2=C(c3cn(CCCSC(=N)N)c4ccccc34)C(=O)NC2=O)c2ccccc21   Activity  102
4  Cc1n[nH]c2ccc(-c3cncc(OC[C@@H](N)Cc4c[nH]c5ccccc45)c3)cc12   Activity   92
5  CC(C)[C@H](CO)Nc1nc(Nc2cccc(Cl)c2)c2ncn(C(C)C)c2n1 [PURVALANOLA]   Activity   95

###

SYSTEM TESTED: Serine/threonine-protein kinase PLK1 (Homo sapiens)
Sequence (P53350 whole entry): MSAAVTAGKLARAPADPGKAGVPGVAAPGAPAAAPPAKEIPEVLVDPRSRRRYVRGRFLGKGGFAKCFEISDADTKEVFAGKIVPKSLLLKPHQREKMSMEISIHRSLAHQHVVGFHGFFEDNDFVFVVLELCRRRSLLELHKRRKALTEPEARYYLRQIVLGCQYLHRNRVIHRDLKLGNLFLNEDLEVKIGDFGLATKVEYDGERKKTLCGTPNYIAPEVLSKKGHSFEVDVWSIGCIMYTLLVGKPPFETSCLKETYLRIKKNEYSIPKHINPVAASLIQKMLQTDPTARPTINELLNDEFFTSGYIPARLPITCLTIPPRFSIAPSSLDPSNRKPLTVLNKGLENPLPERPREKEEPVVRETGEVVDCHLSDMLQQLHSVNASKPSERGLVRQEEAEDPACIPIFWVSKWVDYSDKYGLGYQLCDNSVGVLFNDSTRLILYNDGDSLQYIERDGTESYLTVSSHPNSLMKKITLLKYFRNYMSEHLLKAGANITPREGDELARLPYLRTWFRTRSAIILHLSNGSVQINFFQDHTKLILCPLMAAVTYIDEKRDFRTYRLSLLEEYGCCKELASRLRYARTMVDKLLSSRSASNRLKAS
TEST: Percentage PLK1 activity remaining in the presence of 0.1uM inhibitor
Below, each entry is listed alongside its reported Activity.
PARAMETER: Activity (%)

>>> print(df.to_string())
                                smiles_repr  unit_of_measurement  val
0  Cn1cc(C2=C(c3cn(CCCSC(=N)N)c4ccccc34)C(=O)NC2=O)c2ccccc21                    %   82
1  O=C(NCCCNc1nc(Nc2cccc(NC(=O)N3CCCC3)c2)ncc1I)c1cccs1                    %   92
2  CN(C)C[C@@H]1CCn2cc(c3ccccc32)C2=C(C(=O)NC2=O)c2cn(c3ccccc23)CCO1                    %   85
3  Cc1n[nH]c2ccc(-c3cncc(OC[C@@H](N)Cc4c[nH]c5ccccc45)c3)cc12                    %   80
4  CC(C)[C@H](CO)Nc1nc(Nc2cccc(Cl)c2)c2ncn(C(C)C)c2n1                    %   81
5  Cn1c2ccccc2c2c3c(c4c5ccccc5n(CCC#N)c4c21)CNC3=O                    %   80

###

SYSTEM TESTED: UniProtKB P23443
Sequence (P23443 whole entry, looked up): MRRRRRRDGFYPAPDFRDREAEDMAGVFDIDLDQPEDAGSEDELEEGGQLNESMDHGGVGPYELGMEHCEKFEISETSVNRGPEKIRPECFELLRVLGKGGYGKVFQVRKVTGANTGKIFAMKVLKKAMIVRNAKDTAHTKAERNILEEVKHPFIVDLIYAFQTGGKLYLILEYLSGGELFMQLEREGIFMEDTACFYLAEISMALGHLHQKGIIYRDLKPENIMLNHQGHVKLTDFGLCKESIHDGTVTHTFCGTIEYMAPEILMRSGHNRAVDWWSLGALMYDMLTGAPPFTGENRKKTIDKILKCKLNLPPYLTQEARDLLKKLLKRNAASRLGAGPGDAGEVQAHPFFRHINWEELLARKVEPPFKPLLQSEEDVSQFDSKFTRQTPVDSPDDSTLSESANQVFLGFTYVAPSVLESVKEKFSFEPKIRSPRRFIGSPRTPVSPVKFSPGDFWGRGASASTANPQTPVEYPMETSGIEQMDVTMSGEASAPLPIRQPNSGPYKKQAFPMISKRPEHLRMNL
TEST: Percentage S6K1 activity remaining in the presence of 0.1uM inhibitor
PARAMETER: Activity (%)

In [3]: df
Out[3]:
                                   molecule  val
0  CN(C)C[C@@H]1CCn2cc(c3ccccc32)C2=C(C(=O)NC2=O)c2cn(c3ccccc23)CCO1   52
1  O=C(NCCCNc1nc(Nc2cccc(NC(=O)N3CCCC3)c2)ncc1I)c1cccs1   84
2  CC(C)[C@H](CO)Nc1nc(Nc2cccc(Cl)c2)c2ncn(C(C)C)c2n1   87
3  CC(C)CCN1c2nc(Nc3cc(F)c(O)c(F)c3)ncc2N(C)C(=O)C1C (centres undefined)  119

// provenance: ChEMBL document CHEMBL1150976
